Measured on: PIK3CD (human) (UniProt O00329)
Sequence (O00329 whole entry, looked up): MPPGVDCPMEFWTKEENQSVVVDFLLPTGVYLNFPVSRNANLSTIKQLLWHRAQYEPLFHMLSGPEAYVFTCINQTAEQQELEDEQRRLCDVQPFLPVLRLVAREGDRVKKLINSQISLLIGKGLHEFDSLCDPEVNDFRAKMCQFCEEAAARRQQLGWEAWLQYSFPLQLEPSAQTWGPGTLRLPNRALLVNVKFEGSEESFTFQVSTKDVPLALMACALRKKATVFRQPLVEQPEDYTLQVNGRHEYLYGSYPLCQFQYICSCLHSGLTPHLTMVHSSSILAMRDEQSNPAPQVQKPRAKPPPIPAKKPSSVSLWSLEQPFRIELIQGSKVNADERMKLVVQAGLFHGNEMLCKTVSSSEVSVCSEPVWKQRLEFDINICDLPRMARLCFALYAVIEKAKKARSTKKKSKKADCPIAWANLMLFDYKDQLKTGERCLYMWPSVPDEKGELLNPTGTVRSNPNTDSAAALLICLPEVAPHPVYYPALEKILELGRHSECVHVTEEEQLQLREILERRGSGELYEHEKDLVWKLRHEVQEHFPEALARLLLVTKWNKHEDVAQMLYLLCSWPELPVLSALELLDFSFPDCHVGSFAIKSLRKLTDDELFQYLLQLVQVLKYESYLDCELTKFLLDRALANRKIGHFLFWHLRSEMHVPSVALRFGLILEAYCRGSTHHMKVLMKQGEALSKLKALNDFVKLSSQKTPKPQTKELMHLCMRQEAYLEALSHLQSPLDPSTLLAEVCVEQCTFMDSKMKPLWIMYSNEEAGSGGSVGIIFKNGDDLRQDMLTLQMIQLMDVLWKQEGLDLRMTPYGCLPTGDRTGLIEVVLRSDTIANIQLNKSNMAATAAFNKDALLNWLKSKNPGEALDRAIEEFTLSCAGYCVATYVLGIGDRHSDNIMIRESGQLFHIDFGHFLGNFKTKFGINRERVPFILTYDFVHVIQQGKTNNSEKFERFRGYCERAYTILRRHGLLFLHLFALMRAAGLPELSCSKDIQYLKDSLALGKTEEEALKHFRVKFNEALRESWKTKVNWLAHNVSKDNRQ
Measurement description: KINOMEscan competition binding
Condition info: compound 10.0 µM
kinase still bound, per cent of control reference
Unit % implied. Number only.

Worked examples, 4 molecules total:
# Molecule, Measured on, kinase still bound, per cent of control [%]
rows = [
    ("CS(=O)C1=NC(=O)/C(=C/c2ccc(-c3ccc(S(N)(=O)=O)cc3)o2)S1 (stereo not given)", "PIK3CD (human) (UniProt O00329)", 30),
    ("CN1C(=O)c2ccccc2N(C)c2nc(NS(=O)(=O)c3ccc(N)cc3)ncc21", "PIK3CD (human) (UniProt O00329)", 91),
    ("COc1cc(N2CCN(C)CC2)ccc1Nc1ncc2c(n1)N(C)c1ccccc1N(C)C2=O", "PIK3CD (human) (UniProt O00329)", 100),
    ("N=C1NC(=O)/C(=C/c2ccc(-c3cccc4cc[nH]c34)o2)S1", "PIK3CD (human) (UniProt O00329)", 23),
]

Note: attention shifts to another entry.
Param item = CN1C(=O)c2ccccc2N(C)c2nc(Nc3ccc(N4CCC(O)CC4)cc3)ncc21 ; retrieve measured kinase still bound, per cent of control. 58
